Form field: glass transition temperature (one value per entry).

| compound | glass transition temperature (°C) |
| --- | --- |
| *CCN(*)C(=O)CSC (repeat unit) | 39.00 |
| *c1ccc(C(C#N)(C(=O)OCC(C)C)C(*)(C#N)C(=O)OCC(C)C)cc1 (repeat unit) | 108.00 |
| *NC1CCC(CC2CCC(NC(=O)CCCCCCCCC(*)=O)CC2)CC1 (repeat unit) | 144.00 |
| *C(=O)Nc1ccc(-c2sc(-c3ccc(NC(=O)c4ccc5c(c4)C(=O)N(c4ccc(Oc6cccc7c(Oc8ccc(N9C(=O)c%10ccc(*)cc%10C9=O)cc8)cccc67)cc4)C5=O)cc3)c(-c3ccccc3)c2-c2ccccc2)cc1 (repeat unit) | 340.00 |
